target: PI3K γ (Homo sapiens (Human)); assay: PI 3-Kinase (human) HTRF assay, p110γ; type: biochemical; conditions: read-out: PI3K γ IC50
Sequence (P48736 whole entry): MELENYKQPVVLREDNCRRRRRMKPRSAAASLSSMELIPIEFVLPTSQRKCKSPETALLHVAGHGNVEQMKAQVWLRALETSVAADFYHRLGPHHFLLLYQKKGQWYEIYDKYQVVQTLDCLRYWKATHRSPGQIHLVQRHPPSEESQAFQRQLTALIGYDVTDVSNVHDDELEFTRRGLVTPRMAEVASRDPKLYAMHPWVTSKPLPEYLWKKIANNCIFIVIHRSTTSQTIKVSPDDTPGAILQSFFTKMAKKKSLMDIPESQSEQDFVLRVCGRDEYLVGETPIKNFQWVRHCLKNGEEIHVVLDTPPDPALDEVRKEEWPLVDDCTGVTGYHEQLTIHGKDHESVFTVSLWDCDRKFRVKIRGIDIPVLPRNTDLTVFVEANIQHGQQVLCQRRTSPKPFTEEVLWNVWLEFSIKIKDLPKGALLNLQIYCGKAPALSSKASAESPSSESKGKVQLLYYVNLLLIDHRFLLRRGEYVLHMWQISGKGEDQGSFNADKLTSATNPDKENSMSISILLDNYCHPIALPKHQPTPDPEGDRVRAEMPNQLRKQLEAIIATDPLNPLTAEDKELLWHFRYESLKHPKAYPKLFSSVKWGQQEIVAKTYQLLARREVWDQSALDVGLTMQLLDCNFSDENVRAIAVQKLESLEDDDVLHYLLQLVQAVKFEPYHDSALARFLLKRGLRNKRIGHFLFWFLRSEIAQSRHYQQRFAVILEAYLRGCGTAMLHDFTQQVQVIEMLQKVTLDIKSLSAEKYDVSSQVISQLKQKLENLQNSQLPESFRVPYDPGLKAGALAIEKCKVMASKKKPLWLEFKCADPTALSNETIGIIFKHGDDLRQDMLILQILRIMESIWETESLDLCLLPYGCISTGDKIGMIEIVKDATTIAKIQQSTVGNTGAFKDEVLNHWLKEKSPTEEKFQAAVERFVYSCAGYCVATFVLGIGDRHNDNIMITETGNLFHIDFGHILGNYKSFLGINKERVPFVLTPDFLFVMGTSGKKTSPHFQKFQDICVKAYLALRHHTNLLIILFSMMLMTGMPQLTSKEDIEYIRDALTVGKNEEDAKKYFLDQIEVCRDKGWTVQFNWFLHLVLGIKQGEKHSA
pIC50: −log10 of the molar value.
parameter-measured: pIC50

Look over these answered cases.
* C[C@@H]1CN(c2cnc3ccc(-c4ccc5oc(N)nc5c4)cc3n2)CCN1 | > 5.00
* C[C@@H]1CN(c2cnc3ccc(-c4ccc5oc(N)nc5c4)nc3n2)CCN1 | > 6.00
* CCN(CC)c1cnc2ccc(-c3ccc4oc(N)nc4c3)nc2n1 | > 6.00
* Nc1nc2cc(-c3ccc4ncc(-c5ccc(N6CCOCC6)nc5)nc4c3)ccc2o1 | < 5.00
* Cc1cn(-c2cnc3ccc(-c4ccc5oc(N)nc5c4)cc3n2)cn1 | > 6.00

So what does the record say about pIC50 for `C[C@@H]1CN(c2cnc3ccc(-c4ccc5oc(N)nc5c4)nc3c2)CCN1` ? > 5.00

I'd like to know its pIC50. The compound in question is `CC(=O)N1CCC(N(C)c2ncnc3ccc(-c4ccc5oc(N)nc5c4)cc23)CC1` > 6.00

What value of measured pIC50 is listed for `Nc1nc2cc(-c3cn4c(C(=O)N5CCOCC5)cnc4cn3)ccc2o1` ? < 5.00

What does the data say about its pIC50? Entry: `Nc1nc2cc(-c3ccc4ncc(C#CC5CC5)n4c3)ccc2o1` > 7.00

Param item = `Nc1noc2ccc(-c3ccc4nccc(-c5ccncc5)c4c3)cc12` ; retrieve measured pIC50. > 5.00

Given the compound `Nc1nc2cc(-c3ccc4ncc(N5CCC(N6CCOCC6)CC5)nc4c3)ccc2o1` , what is its reported pIC50? > 6.00

May I ask what pIC50 has been recorded for `Nc1nc2cc(-c3ccc4ncc(N5CC(N6CCN(C7CC7)CC6)C5)nc4n3)ccc2o1` ? > 5.00

Record request: pIC50 value, item `CN1CCC(Nc2ncnc3ccc(-c4ccc5oc(N)nc5c4)cc23)CC1` > 7.00

Suppose we examine the compound `CC(C)N1CCN(c2cnc3ccc(-c4ccc5oc(N)nc5c4)nc3c2)CC1` ; what pIC50 value has been reported? > 6.00

Can you share its pIC50? I mean this compound: `Nc1nc2cc(-c3ccc4ncc(N5CC(N6CCNCC6)C5)nc4n3)ccc2o1` < 5.00

Entry `CCOC(=O)N1CCN(c2cnc3ccc(-c4ccc5oc(N)nc5c4)nc3n2)CC1` : reported pIC50 = ? > 6.00

Requested field: pIC50. Item: `Nc1nc2cc(-c3ccc4ncc(-c5cccnc5)nc4n3)ccc2o1` > 6.00

Item `CN1CCN(C(=O)c2cnc3ccc(-c4ccc5oc(N)nc5c4)nn23)CC1` has what recorded pIC50? > 5.00

---

molecular target: UniProt P42336
Sequence (P42336 whole entry): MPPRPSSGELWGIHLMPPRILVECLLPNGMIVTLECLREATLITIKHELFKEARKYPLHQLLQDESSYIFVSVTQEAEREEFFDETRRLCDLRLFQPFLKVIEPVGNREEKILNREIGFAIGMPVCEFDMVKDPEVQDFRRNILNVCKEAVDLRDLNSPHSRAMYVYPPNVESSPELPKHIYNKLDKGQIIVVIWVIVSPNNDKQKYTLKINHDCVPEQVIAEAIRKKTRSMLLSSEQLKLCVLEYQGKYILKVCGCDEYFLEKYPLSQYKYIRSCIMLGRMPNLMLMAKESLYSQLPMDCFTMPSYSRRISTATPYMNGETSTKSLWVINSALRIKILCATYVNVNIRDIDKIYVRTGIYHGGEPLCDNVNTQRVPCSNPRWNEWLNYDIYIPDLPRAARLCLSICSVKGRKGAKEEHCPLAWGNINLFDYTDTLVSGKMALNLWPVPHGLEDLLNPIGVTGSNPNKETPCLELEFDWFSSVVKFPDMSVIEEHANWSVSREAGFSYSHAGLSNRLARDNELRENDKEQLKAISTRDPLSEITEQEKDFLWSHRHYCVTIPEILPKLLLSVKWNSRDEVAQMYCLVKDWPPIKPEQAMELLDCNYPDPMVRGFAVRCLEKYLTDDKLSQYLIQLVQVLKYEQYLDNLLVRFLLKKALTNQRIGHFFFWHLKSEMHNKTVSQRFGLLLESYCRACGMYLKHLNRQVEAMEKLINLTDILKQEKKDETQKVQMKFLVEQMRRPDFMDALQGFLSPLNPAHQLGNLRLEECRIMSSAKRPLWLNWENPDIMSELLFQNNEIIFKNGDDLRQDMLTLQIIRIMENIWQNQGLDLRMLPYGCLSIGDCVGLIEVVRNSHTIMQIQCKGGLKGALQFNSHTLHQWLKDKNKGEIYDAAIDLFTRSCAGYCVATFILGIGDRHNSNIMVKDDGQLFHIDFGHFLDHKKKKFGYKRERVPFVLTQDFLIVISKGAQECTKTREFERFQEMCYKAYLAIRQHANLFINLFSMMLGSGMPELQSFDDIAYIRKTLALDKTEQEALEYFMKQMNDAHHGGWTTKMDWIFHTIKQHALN
Sequence (P27986 whole entry partner): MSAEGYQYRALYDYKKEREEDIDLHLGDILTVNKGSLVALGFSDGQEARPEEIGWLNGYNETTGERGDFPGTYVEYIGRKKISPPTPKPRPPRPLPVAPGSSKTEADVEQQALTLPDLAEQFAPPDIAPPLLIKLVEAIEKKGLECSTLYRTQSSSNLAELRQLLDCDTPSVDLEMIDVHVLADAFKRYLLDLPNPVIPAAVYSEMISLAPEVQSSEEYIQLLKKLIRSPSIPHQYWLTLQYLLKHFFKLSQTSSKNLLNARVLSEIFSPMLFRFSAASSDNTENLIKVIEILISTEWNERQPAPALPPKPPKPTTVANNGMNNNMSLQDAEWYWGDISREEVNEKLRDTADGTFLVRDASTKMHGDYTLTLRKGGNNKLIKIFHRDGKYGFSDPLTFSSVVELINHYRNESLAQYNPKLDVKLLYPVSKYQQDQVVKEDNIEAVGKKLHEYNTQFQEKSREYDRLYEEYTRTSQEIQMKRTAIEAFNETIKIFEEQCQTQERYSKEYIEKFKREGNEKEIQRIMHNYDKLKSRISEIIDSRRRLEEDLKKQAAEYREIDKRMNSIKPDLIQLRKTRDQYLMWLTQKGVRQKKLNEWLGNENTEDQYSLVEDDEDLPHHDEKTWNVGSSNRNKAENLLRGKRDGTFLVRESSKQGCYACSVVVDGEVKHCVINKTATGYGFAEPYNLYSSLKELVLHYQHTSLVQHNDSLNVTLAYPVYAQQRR
pIC50: −log10 of the molar value.
parameter-measured: pIC50

Consider the reported pIC50 for these compounds:
* CN1CCN(C(=O)c2cnc3ccc(-c4ccc5nc(N)oc5c4)cn23)CC1 | > 6.00
* Nc1nc2cc(-c3ccc4ncc(N5CC(N6CCNC(=O)C6)C5)nc4c3)ccc2o1 | > 7.00
* Nc1nc2cc(-c3ccc4ncn(CCN5CCCC5)c(=O)c4c3)ccc2o1 | > 5.00
* Nc1nc2c(-c3ccc4ncc(C(=O)N5CCOCC5)n4c3)cccc2o1 | > 6.00
* Nc1nc2cc(-c3ccc4ncc(N5CCC(F)(F)CC5)nc4n3)ccc2o1 | > 7.00
* CN1CCN(C(=O)C2CN(c3cnc4ccc(-c5ccc6oc(N)nc6c5)cc4n3)C2)CC1 [drawing 443] | < 5.00
* CN1CCC(N(C)c2cnc3ccc(-c4ccc5oc(N)nc5c4)cc3n2)CC1 | > 7.00
* Nc1nc2cc(-c3ccc4ncc(N5CCC(N6CCOCC6)CC5)nc4c3)ccc2o1 | > 7.00
* Cn1c(=O)n(-c2ccc(C(C)(C)C#N)cc2)c2c3cc(-c4ccc5oc(N)nc5c4)ccc3ncc21 | > 7.00
* Cc1nccn1C1CN(c2cnc3ccc(-c4ccc5oc(N)nc5c4)nc3n2)C1 | > 7.00

What is its pIC50 for UniProt P42336? Entry: `CC(=O)N1CCN(C2CN(c3cnc4ccc(-c5ccc6oc(N)nc6c5)cc4n3)C2)CC1` > 7.00

Enter reported pIC50 observed with UniProt P42336 for `C[C@H]1CN(c2cnc3cccc(-c4ccc5nc(N)oc5c4)c3n2)CCN1` < 5.00

Reference for the values: patent US9682141B2
